Molecular target: Cytochrome P450 2C9 (Homo sapiens) (UniProt P11712)
Sequence (P11712 whole entry, looked up): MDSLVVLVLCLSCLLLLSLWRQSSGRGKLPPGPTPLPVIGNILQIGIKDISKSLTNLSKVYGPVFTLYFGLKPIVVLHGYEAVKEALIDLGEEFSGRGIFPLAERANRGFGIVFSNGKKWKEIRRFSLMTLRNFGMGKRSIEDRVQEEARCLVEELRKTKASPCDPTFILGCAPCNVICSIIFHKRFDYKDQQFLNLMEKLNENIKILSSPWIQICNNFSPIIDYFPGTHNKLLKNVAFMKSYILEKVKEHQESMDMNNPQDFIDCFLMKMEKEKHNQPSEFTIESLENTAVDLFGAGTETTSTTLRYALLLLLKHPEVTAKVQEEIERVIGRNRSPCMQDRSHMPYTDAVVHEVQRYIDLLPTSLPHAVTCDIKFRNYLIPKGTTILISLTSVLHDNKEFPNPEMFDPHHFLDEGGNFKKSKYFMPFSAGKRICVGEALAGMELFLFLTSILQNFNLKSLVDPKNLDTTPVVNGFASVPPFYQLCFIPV
Test: Cytochrome panel assay with activity outcomes
Conditions: recombinant CYP, pro-luciferin dealkylation, luminescence, p450-cyp2c9; series mostly up to 57.1 µM
The campaign covered roughly 16,000 compounds. About 4,000 (25%) were called active. Roughly 26% stayed inconclusive and do not appear here. Calls come from the whole dose curve; as a rule, active = well fitted curve in the direction sought with a large enough effect; inconclusive = small, poorly fitted or top-dose-only effect, or effect the other way; inactive = no such curve, though single readings can be large or run the other way. A selection follows.
Hi! Could you answer with just one of these? active, inactive

Worked examples follow.
molecule	category
O=C(c1ccccc1-c1nc(-c2ccccc2)no1)N1CCOCC1	active
O=C1NC(c2ccccc2)=NC1(NS(=O)(=O)c1ccccc1)C(F)(F)F (configuration not stated)	inactive
CC[N+](CC)(CC)CCOc1cccc(OCC[N+](CC)(CC)CC)c1OCC[N+](CC)(CC)CC	inactive
CCOc1ccc(CC(=O)Nc2sc(Cc3ccccc3)c(C)c2C(N)=O)cc1OCC	inactive
N#Cc1ccc(CN2CCC3(CC2)CCN(S(=O)(=O)c2ccccc2)CC3)cc1	inactive
CN1CCN(c2ncc3nc(-c4ccccc4)c(=O)n(CCc4ccccc4)c3n2)CC1	active
O=C1CC(c2ccc3c(c2)OCO3)Sc2nc3ccccc3n21 (configuration not stated)	active
O=C(NC1CCCCC1)C(c1cccs1)N(C(=O)C(F)(F)F)c1ccccc1 (configuration not stated)	active
COCC(=O)N1CCC2(CC1)CN(C(=O)Nc1cccc(F)c1)C2	inactive
CCOC(=O)CNC(=O)c1cccnc1	inactive

Lookup: Test call, this molecule: COC(=O)N1CCC2(CCCN(Cc3ccccc3)C2)CC1
Found: inactive

Lookup: Request: O=c1c(-c2ccc(Cl)cc2)nc2cnc(N3CCOCC3)nc2n1CCc1ccccc1
Found: inactive

Lookup: Request: CC(C)(C)c1cc2cccnc2n1Cc1cccc(F)c1
Found: inactive

* * *

Target: Cytochrome P450 2C9 (Homo sapiens) (UniProt P11712)
Test: Cytochrome panel assay with activity outcomes
Conditions: recombinant CYP, pro-luciferin dealkylation, luminescence, p450-cyp2c9; series mostly up to 57.1 µM
About 4,000 (25%) of roughly 16,000 compounds were called active. Not shown: some 26% with an inconclusive outcome. The call rests on the fitted dose curve; in most records, active means well fitted curve in the direction sought with a large enough effect; inconclusive means small, poorly fitted or top-dose-only effect, or effect the other way; inactive means no such curve, though single readings can be large or run the other way. A selection follows.
Hi! Could you answer with just one of these? active, inactive

molecule	category
O=C(Cn1c(C(F)(F)F)nc2ccccc21)c1ccccc1	active

Lookup: Test call, this molecule: CC(CCc1ccccc1)NC(=O)/C=C/c1ccccc1 (stereo not drawn)
Found: active

Lookup: Request: O=c1c(-c2ccc(Cl)cc2)[n+]([O-])c2ccccc2n1OCc1ccccn1
Found: inactive

* * *

Target: Cytochrome P450 2C9 (Homo sapiens) (UniProt P11712)
Assay: Cytochrome panel assay with activity outcomes
Conditions: recombinant CYP, pro-luciferin dealkylation, luminescence, p450-cyp2c9; series mostly up to 57.1 µM
Procedure: The P450 gene superfamily is involved in the metabolism and clearance of xenobiotics. This assay used various human CYP P450 isozymes to measure the dealkylation of various pro-luciferin substrates to luciferin. The luciferin is then measured by luminescence after the addition of a luciferase detection reagent. […] Inhibitors and some substrates limit the production of luciferin, and decrease measured luminescence. […] 8, Detection, 1 sec, ViewLux luminescent read […]
The campaign covered roughly 16,000 compounds. About 4,000 (25%) were called active. About 26% were inconclusive and are not listed. The call rests on the fitted dose curve; in most records, active means well fitted curve in the direction sought with a large enough effect; inconclusive means small, poorly fitted or top-dose-only effect, or effect the other way; inactive means no such curve, though single readings can be large or run the other way. The list is a sample of the results.
Hi! Could you answer with just one of these? active, inactive

Worked examples follow.
compound	category
COc1ccccc1CN1CC[C@@]2(CCCN(C(=O)c3ccco3)C2)C1	inactive
CCOC(=O)c1c2ccc(OCC(=O)N/N=C/c3ccc(Cl)cc3)cc2n2ccccc12	active
CC(=O)N1N=C(c2cccc([N+](=O)[O-])c2)OC1c1ccccc1Cl (stereo unspecified)	active

Lookup: Test call, this compound: CCC(=O)O[C@H](CC(=O)O)C[N+](C)(C)C
Found: inactive

Lookup: Request: Cc1cc(NC(=O)CN2C(=O)NC(C)(c3ccc(OC(F)F)cc3)C2=O)no1 (stereo unspecified)
Found: inactive

Lookup: Request: CC(=O)N1N=C(c2cccc([N+](=O)[O-])c2)OC1c1ccc(Cl)cc1Cl (stereo unspecified)
Found: active

* * *

Target: Cytochrome P450 2C9 (Homo sapiens) (UniProt P11712)
Experiment: Cytochrome panel assay with activity outcomes
Details: recombinant CYP, pro-luciferin dealkylation, luminescence, p450-cyp2c9; series mostly up to 57.1 µM
The campaign covered roughly 16,000 compounds. About 4,000 (25%) were called active. Roughly 26% stayed inconclusive and do not appear here. The call rests on the fitted dose curve; in most records, active means well fitted curve in the direction sought with a large enough effect; inconclusive means small, poorly fitted or top-dose-only effect, or effect the other way; inactive means no such curve, though single readings can be large or run the other way. A selection follows.
Hi! Could you answer with just one of these? active, inactive

Worked examples follow.
compound	category
C=CCC(C(=O)OC)(C(=O)OC)c1ccc([N+](=O)[O-])cn1	inactive
CCC(Sc1nc(C)cc(=O)[nH]1)C(=O)Nc1nc2c(s1)CCCC2 (centres undefined)	active
O=C(O)/C=C\c1cnc[nH]1	inactive
O=C(Cc1ccc(S(=O)(=O)N2CCOCC2)s1)Nc1nc2c(s1)CCCC2	active
Clc1ccc2c(c1)C(N1CCNCC1)=Nc1ccccc1O2	inactive
COc1ccc(C(=O)N2CC3(CC(c4ccc(Cl)cc4)=NO3)C[C@H]2C(=O)NCC(N)=O)cc1 (some centres undefined)	inactive

Lookup: Test call, this compound: C[C@H](Cc1ccc(O)c(O)c1)[C@@H](C)Cc1ccc(O)c(O)c1
Found: active

Lookup: Request: COC(=O)[C@H]1C[C@@H]1[C@H](NC(=O)c1cnccn1)c1ccccc1
Found: inactive

Lookup: Request: COc1ccc(C(=O)N2CCC[C@@]3(CCN(Cc4ccc(C#N)cc4)C3)C2)cc1
Found: inactive

* * *

Molecular target: Cytochrome P450 2C9 (Homo sapiens) (UniProt P11712)
Assay: Cytochrome panel assay with activity outcomes; for activity, negative = inhibition: % is set by controls: 0 for no effect and ±100 for the full control effect
Details: recombinant CYP, pro-luciferin dealkylation, luminescence, p450-cyp2c9; series mostly up to 57.1 µM
Description: The P450 gene superfamily is involved in the metabolism and clearance of xenobiotics. This assay used various human CYP P450 isozymes to measure the dealkylation of various pro-luciferin substrates to luciferin. The luciferin is then measured by luminescence after the addition of a luciferase detection reagent. […] Inhibitors and some substrates limit the production of luciferin, and decrease measured luminescence. […] 8, Detection, 1 sec, ViewLux luminescent read […]
Out of some 16,000 compounds screened, about 4,000 (25%) were called active. Roughly 26% stayed inconclusive and do not appear here. The list is a sample of the results.
compounds and their reported activity, negative = inhibition

Worked cases, activity, negative = inhibition given:
compound	subject of test	meas value
FC(F)(F)c1ccccc1-c1cncnc1NCc1cccs1	Cytochrome P450 2C9 (Homo sapiens) (UniProt P11712)	-5.24% [at 2.29 µM] (inactive)
C#CCCCO/N=C1/C[C@@H](O)[C@@H](O)[C@@H]2[C@@H]3C(=O)N([C@@H](C)c4ccccc4)C(=O)[C@H]3CC[C@@H]12	Cytochrome P450 2C9 (Homo sapiens) (UniProt P11712)	-23.8% [at 11.4 µM] (inactive)
CCOC(=O)c1c(O)[nH]c(=O)c(CC)c1C	Cytochrome P450 2C9 (Homo sapiens) (UniProt P11712)	4.97% [at 11.4 µM] (inactive)
CO[C@@H]1COC(=O)[C@H]2CCCN2C(=O)[C@@H](C)COC(=O)[C@H](COCc2ccccc2)NC(=O)C/C=C\[C@H]1C	Cytochrome P450 2C9 (Homo sapiens) (UniProt P11712)	10.5% [at 11.4 µM] (inactive)

Lookup: Given the entry COc1ccc2c(=O)cc(-c3ccncc3)oc2c1OC , what activity, negative = inhibition was observed with Cytochrome P450 2C9 (Homo sapiens) (UniProt P11712)?
Found: -7.78% [at 11.4 µM] (inactive)

Lookup: Request: CN1CCN(Cc2nc3cccc4c3c([n+]2[O-])-c2ccccc2-4)CC1
Found: -11.8% [at 11.4 µM] (inactive)

* * *

Molecular target: Cytochrome P450 2C9 (Homo sapiens)
Assay: Cytochrome panel assay with activity outcomes
Conditions: recombinant CYP, pro-luciferin dealkylation, luminescence, p450-cyp2c9; series mostly up to 57.1 µM
Method: The P450 gene superfamily is involved in the metabolism and clearance of xenobiotics. This assay used various human CYP P450 isozymes to measure the dealkylation of various pro-luciferin substrates to luciferin. The luciferin is then measured by luminescence after the addition of a luciferase detection reagent. […] Inhibitors and some substrates limit the production of luciferin, and decrease measured luminescence. […] 8, Detection, 1 sec, ViewLux luminescent read […]
Screen size: about 16,000 compounds; about 4,000 (25%) were called active. Not shown: some 26% with an inconclusive outcome. Only a sample is shown.
observable: AC50

Worked cases, AC50 given:
compound	meas value
Cc1ccc(-n2nc(C)c3c2OC(N)=C(C#N)C3c2ccco2)cc1 (stereo not drawn)	6.31 µM (active)
CCCNC(=O)Nc1ccc2c(c1)nc(C)n2C	inactive
Cn1cccc1C(=O)N1CCC[C@@]2(CCN(Cc3ccc(C#N)cc3)C2)C1	inactive
CCS(=O)(=O)N1CCC(C(=O)NCCCOC)CC1	inactive
Cc1ccc(CC(=O)N2CCN(c3cccc(C(F)(F)F)c3)CC2)cc1	14.1 µM (active)

Lookup: Given the entry COc1ccc2c(c1)CCc1sc(NC(=O)c3ccc(C)cc3)nc1-2 , what AC50 was observed with Cytochrome P450 2C9 (Homo sapiens)?
Found: 5.01 µM (active)

Lookup: Request: Cc1nc2cnc(N3CCN(C)CC3)nc2n(-c2ccccc2)c1=O
Found: inactive

Lookup: Request: O=C(O)CN(CCOCCOCCN(CC(=O)O)CC(=O)O)CC(=O)O
Found: inactive

Lookup: Request: COc1cccc(C(=O)Nc2nc3c(s2)CN(C)CC3)c1
Found: inactive

Data provenance is PubChem BioAssay AID1851.
